B1: KCNAB2 (parent)
chain: YVDVVFANRPDPNTPMEETVRAMT

Variants of: B1
assay_details: protein stability index of a GFP-peptide fusion (GPS, HEK-293T) (PSI 1-6); higher = more stable;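 note: lentivirally expressed fusions sorted by FACS into six bins by GFP to DsRed ratio, PSI derived from sequencing read proportions per bin multiplied by bin number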
assay_context: c terminus: a fixed tail appended
Below, each entry is listed with its recorded protein stability index.
Keep it simple and answer with nothing but the number.

Below, each entry is followed by its recorded protein stability index result.
YVDVVFANRPDPNTPMEETVGAMT [R21G]; 2.37
YVDVVFANRPDPTTPMEETVRAMT [N13T]; 1.3
YVDVVFANRPDPNTPMEPTVRAMT [E18P]; 2.27
YVDFVFANRPDPNTPMEETVRAMT [V4F]; 2.3
YVDVVFANRPDPNTPMEETVRSMT [A22S]; 1.76
YVDVVFANRPDPNTPMEETVRAML [T24L]; 1.8

In plain terms, YVDVVFANRPDPNTPMEEMVRAMT [T19M] has a documented protein stability index of 1.79

In plain terms, YVDVVFANRPDPNTPMTETVRAMT [E17T] has a documented protein stability index of 2.84

In plain terms, YCDVVFANRPDPNTPMEETVRAMT [V2C] has a documented protein stability index of 2.34

The measured values listed here are drawn from the supplement of paper PMC10567573.
